B1: LINE1-full (parent)
chain: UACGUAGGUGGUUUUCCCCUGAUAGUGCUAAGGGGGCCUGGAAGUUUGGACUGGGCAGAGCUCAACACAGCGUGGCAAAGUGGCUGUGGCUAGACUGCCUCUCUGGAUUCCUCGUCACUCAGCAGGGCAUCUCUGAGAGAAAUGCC

variants of: B1; experiment: self-cleavage, relative activity (ratio to wild type); higher = more cleavage; in vitro, sequencing; the parent is a self-cleaving ribozyme
Decision: self-cleavage >= 1 yields met, all other cases yield not met.

Determine whether measured self-cleavage meets or exceeds 1 for `C61U` not met

U14A C99G , same question. not met

G60A A129U , same question. not met

C71A U108C , same question. not met

A67G U85G , same question. not met

U26G G122A , same question. met

U26C G125A , same question. met

C61A U130A , same question. not met

U13G A117C , same question. not met

C68A C133A , same question. not met

U91C U119A , same question. not met

U119A A129G , same question. met

A64C C145U , same question. not met

U62A G93U , same question. not met

U13C U143C , same question. met

U26A U46C , same question. met

U109C A140U , same question. met

C37U A140G , same question. not met

U13C C28U , same question. not met

U102A U108C , same question. met

A31C A69G , same question. not met

A79G C116U , same question. met

`G34A` , same question. met

G75A A117U , same question. met

A69U A77G , same question. not met

U46C U100A , same question. met

U45A U62C , same question. not met

A42G U87C , same question. not met

G93A A141G , same question. not met

U12C U102G , same question. not met

U96A U102C , same question. not met

U14C U134C , same question. met

A92C A138G , same question. not met

A22C U119A , same question. met

U143A G144A , same question. met

U23C A117G , same question. met

U62C G122A , same question. not met

U119A A142C , same question. met

A24U A121G , same question. met

U130A U134C , same question. met

A42C A92C , same question. not met

U45C U73G , same question. met

C56A A124G , same question. not met

A79G A94G , same question. not met

G34U A77G , same question. met
